- assay-name: Volume of distribution at steady state in rat
- Type: ADME
- experimental-context: in vivo, read-out: Vdss
Quick reference: Vd of the listed items.
The answer is to be given in L/kg; state only the numeric part.

• Cc1nc(-c2nc3ccccc3n2C)c(C)c(-c2ccc3c(c2C)N(C)CCO3)c1[C@H](OC(C)(C)C)C(=O)O = 1.6

(Q) Find the recorded Vd belonging to "Cc1nc(C(=O)N[C@H]2CC[C@H](C)CC2)c(C)c(-c2ccc3c(c2C)N(C)CCO3)c1[C@H](OC(C)(C)C)C(=O)O" and report it.
(A) 1.4

---

In this section, each of the compounds is paired with its reported log10 of EC50.
- assay-name: Inhibition of HIV NL4.3 integrase N124/T125 double mutant assessed as reduction in viral replication by luciferase reporter gene assay
- Design: species or system Human immunodeficiency virus
All values: log10 EC50 [nM].

Recorded results for 6 compounds are shown here.
- Cc1nc(-c2nc3ccc(F)cc3n2C)c(C)c(-c2ccc3c(c2C)N(C)CCO3)c1[C@H](OC(C)(C)C)C(=O)O: 2.08
- Cc1nc(C(=O)N[C@H]2CC[C@H](C)CC2)c(C)c(-c2ccc3c(c2C)N(C)CCO3)c1[C@H](OC(C)(C)C)C(=O)O: 2.23
- Cc1nc(C(=O)N[C@H]2CC[C@H](C)CC2)c(C)c(-c2ccc3c(c2)NCCO3)c1[C@H](OC(C)(C)C)C(=O)O: 2.45
- Cc1nc(C(=O)N[C@H]2CC[C@H](C)CC2)c(C)c(-c2ccc3c(c2)CCCO3)c1[C@H](OC(C)(C)C)C(=O)O: 2.34
- Cc1nc2ccccc2c(-c2ccc3c4c(ccnc24)CCO3)c1[C@H](OC(C)(C)C)C(=O)O: 1.48
- Cc1nc(-c2nc3ccccc3n2C)c(C)c(-c2ccc3c(c2C)N(C)CCO3)c1[C@H](OC(C)(C)C)C(=O)O: 1.77

(Q) Reported log10 of EC50, compound "Cc1nc(-c2cn(-c3ccccc3)nn2)c(C)c(-c2ccc3c(c2)CCCO3)c1[C@H](OC(C)(C)C)C(=O)O" : ____
(A) 2.49

(Q) Fill in the blank: the reported log10 of EC50 of "Cc1nc(C(=O)N[C@H]2CC[C@H](C)CC2)c(C)c(-c2ccc3c(c2C)NCCO3)c1[C@H](OC(C)(C)C)C(=O)O" is ____.
(A) 2.11

(Q) Please give the measured log10 of EC50 for this compound: "Cc1nc(C(=O)N[C@H]2CC[C@H](C)CC2)c(C)c(-c2ccc(Cl)cc2)c1[C@H](OC(C)(C)C)C(=O)O"
(A) 2.76

(Q) Any idea what log10 of EC50 was measured for "Cc1nc(C(=O)NC(C)(C)C2CC2)c(C)c(-c2ccc(Cl)cc2)c1[C@H](OC(C)(C)C)C(=O)O" ?
(A) 2.75

(Q) // query log10 of EC50 value for entry "Cc1nc(C(=O)N[C@H]2CC[C@H](C)CC2)c(C)c(-c2ccc3c(c2)N(C)CCO3)c1[C@H](OC(C)(C)C)C(=O)O"
(A) 2.78

(Q) Quick check: log10 of EC50 of "Cc1noc(C)c1-c1ccc(-c2nc(C)c([C@H](OC(C)(C)C)C(=O)O)c(-c3ccc(Cl)cc3)c2C)cc1" ?
(A) 2.91
